# Assayed System: TRKC (Homo sapiens, UniProt Q16288)
# Sequence (Q16288 32-839): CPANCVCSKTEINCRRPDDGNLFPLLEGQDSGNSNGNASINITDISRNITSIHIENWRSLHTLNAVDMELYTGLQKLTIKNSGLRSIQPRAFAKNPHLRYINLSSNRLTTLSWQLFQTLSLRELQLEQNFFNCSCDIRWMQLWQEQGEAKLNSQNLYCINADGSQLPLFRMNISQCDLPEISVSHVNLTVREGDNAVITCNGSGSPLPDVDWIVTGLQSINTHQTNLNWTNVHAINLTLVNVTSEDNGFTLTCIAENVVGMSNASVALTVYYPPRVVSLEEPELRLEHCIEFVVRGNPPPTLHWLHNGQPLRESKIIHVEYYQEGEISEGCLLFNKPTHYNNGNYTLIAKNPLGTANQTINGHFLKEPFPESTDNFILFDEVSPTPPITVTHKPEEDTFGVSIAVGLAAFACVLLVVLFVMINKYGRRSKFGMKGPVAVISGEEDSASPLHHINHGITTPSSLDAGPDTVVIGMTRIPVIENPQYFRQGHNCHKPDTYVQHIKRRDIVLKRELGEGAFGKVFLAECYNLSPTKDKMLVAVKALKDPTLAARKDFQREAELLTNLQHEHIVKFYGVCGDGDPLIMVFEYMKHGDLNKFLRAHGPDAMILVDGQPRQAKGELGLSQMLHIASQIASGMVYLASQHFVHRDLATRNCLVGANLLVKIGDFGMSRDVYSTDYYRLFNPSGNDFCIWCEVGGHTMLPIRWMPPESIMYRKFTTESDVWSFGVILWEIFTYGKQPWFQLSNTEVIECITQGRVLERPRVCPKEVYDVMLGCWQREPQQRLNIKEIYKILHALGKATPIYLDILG
pIC50: −log10 of the molar value.
Reported Metric: pIC50

> print(dat)
                                        mol  reported.measurement
1  Cc1c(C#Cc2cnc3cnc(-c4ccc(N)cc4)cn23)cccc1C(=O)Nc1cc(CN2CCN(C)CC2)cc(C(C)C)c1                  8.52

* * *

# Tested on: Parental BaF3 (+IL3)
# Test Description: BaF3 cell proliferation, CCK-8 assay
# Condition Context: Mus musculus, BaF3, 72 h, read-out: IC50 (nM ± SD) Parental BaF3 (+IL3)
Reported Metric: IC50 (nM)

> print(dat)
                                        mol  reported.relation  reported.measurement
1  C[C@@H]1CCc2ncc(F)cc2[C@H]2CCCN2c2ccn3ncc(c3n2)C(=O)N1                  >                 10000
2  CN1CCN(c2ccc(C(=O)Nc3n[nH]c4ccc(Cc5cc(F)cc(F)c5)cc34)c(NC3CCOCC3)c2)CC1                  =                  2340
3  Cc1c(C#Cc2cnc3cnc(-c4ccc(N)cc4)cn23)cccc1C(=O)Nc1cc(CN2CCN(C)CC2)cc(C(C)C)c1                  =                  1950
4  O=C(Nc1cnn2ccc(N3CCC[C@@H]3c3cc(F)ccc3F)nc12)N1CC[C@H](O)C1                  >                 10000
5  C[C@H]1CNC(=O)c2cnn3ccc(nc23)N[C@H](C)c2cc(F)ccc2O1                  =                   906

* * *

# Assayed System: TRKB (Homo sapiens, UniProt Q16620)
# Sequence (Q16620 32-822): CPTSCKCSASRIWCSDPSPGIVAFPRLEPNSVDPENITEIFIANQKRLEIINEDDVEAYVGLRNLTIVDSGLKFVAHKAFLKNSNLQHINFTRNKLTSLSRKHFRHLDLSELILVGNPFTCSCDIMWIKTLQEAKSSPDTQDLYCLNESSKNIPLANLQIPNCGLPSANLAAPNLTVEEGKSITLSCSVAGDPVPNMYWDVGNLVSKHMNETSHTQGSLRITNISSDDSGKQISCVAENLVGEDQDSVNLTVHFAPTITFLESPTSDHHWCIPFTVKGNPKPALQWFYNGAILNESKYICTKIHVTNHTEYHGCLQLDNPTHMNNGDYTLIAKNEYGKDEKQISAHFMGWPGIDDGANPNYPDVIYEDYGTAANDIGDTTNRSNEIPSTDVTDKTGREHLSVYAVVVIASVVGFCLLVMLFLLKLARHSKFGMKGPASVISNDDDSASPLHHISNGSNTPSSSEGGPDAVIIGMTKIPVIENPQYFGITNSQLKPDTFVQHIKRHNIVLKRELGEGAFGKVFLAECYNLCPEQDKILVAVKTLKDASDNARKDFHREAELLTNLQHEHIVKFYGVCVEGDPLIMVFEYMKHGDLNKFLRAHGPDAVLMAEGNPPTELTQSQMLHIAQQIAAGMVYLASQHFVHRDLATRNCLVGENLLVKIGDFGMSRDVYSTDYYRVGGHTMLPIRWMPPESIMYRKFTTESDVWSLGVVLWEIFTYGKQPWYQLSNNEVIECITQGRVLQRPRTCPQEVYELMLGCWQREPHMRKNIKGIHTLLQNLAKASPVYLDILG
pIC50: −log10 of the molar value.
Reported Metric: pIC50

> print(dat)
                                   compound                       assayed.system  reported.measurement
1  Cc1c(C#Cc2cnc3cnc(-c4ccc(N)cc4)cn23)cccc1C(=O)Nc1cc(CN2CCN(C)CC2)cc(C(C)C)c1 [JND4135]  TRKB (Homo sapiens, UniProt Q16620)                  8.50

* * *

# System: BaF3 cells harboring wild-type TRKA/B/C
# Test Description: BaF3 cell proliferation, summary over wild-type lines
# Condition Context: Mus musculus, BaF3, read-out: IC50 range in BaF3 cells harboring wild-type TRKA/B/C
pIC50: −log10 of the molar value.
Reported Metric: pIC50

> print(dat)
                                        mol                           assayed.system  reported.metric  reported.measurement
1  Cc1c(C#Cc2cnc3cnc(-c4ccc(N)cc4)cn23)cccc1C(=O)Nc1cc(CN2CCN(C)CC2)cc(C(C)C)c1  BaF3 cells harboring wild-type TRKA/B/C            pIC50          7.64 to 8.62

* * *

# Assayed System: TRKC-G696C (Homo sapiens, UniProt Q16288, G696C)
# Construct: residues 526–839 from the kinase domain; made in house
# Test Description: Bio-layer interferometry (BLI) Octet binding assay
# Condition Context: read-out: Kd, binding affinity to TRKC-G696C
Reported Metric: Kd (nM)

> print(dat)
                                        mol                            assayed.system  reported.metric  reported.measurement
1  Cc1c(C#Cc2cnc3cnc(-c4ccc(N)cc4)cn23)cccc1C(=O)Nc1cc(CN2CCN(C)CC2)cc(C(C)C)c1  TRKC-G696C (Homo sapiens, UniProt Q16288, G696C)               Kd                  3.68
